Biological target: Octopine dehydrogenase (OcDH) (Pecten maximus)
Construct: gene odh1; OcDH-His5, U-[15N] labeled
Assay: 1H-15N TROSY-HSQC NMR titration; also present in the OcDH/NADH/agmatine crystal structure
Format: binding
ASSAY READOUT: Kd (µM)

> print(dat)
                              smiles.record  measurement
1  NC(=O)C1=CN([C@@H]2O[C@H](COP(=O)(O)OP(=O)(O)OC[C@H]3O[C@@H](n4cnc5c(N)ncnc54)[C@H](O)[C@@H]3O)[C@@H](O)[C@H]2O)C=CC1           62

###

Target: Octopine dehydrogenase (OcDH) (Pecten maximus, UniProt Q9BHM6)
Construct: gene odh1; OcDH-His5, U-[15N] labeled
Sequence (Q9BHM6 whole entry): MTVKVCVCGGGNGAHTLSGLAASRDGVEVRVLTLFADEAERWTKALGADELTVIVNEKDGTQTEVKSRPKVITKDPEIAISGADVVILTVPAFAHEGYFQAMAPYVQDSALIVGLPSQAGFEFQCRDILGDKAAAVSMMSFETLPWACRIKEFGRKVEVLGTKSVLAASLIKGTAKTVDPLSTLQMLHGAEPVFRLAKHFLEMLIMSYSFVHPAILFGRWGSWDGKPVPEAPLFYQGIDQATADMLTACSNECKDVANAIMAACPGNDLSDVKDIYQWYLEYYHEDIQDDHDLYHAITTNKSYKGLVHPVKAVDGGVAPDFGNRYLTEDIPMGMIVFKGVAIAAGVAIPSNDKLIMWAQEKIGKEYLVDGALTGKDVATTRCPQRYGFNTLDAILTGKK
Experiment: 1H-15N TROSY-HSQC NMR titration
Assay type: binding
pKd: −log10 of the molar value.

SMILES RECORD	SYSTEM UNDER TEST	pKd
NC(=O)c1ccc[n+]([C@@H]2O[C@H](COP(=O)([O-])OP(=O)(O)OC[C@H]3O[C@@H](n4cnc5c(N)ncnc54)[C@H](O)[C@@H]3O)[C@@H](O)[C@H]2O)c1	Octopine dehydrogenase (OcDH) (Pecten maximus, UniProt Q9BHM6)	3.40
